Hey, just so you know, these numbers are from patent US20110092490A1.

target: CDK7 (Homo sapiens)
Sequence (P50613 whole entry, species assumed): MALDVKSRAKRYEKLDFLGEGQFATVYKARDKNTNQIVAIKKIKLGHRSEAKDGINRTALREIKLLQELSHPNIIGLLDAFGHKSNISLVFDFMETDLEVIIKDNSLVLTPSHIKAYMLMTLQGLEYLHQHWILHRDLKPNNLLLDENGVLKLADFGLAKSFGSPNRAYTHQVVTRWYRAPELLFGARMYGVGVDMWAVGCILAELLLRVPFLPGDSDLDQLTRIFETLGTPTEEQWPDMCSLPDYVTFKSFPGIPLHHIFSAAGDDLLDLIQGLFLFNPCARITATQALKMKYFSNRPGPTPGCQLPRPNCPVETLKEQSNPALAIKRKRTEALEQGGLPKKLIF
Sequence (P51946 whole entry partner, species assumed): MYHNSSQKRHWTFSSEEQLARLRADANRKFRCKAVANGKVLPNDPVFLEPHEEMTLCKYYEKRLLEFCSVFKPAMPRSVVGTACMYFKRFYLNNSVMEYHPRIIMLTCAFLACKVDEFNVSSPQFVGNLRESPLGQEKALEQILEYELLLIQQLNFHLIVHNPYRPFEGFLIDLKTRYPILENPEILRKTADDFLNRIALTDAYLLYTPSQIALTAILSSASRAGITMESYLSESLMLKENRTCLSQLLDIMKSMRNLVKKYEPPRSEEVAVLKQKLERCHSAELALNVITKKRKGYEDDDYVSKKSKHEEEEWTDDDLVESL
pIC50: −log10 of the molar value.
metric: pIC50

1) CNc1nc(C)c(-c2nc(Nc3cccc(C(=O)N4CCOCC4)c3)ncc2C#N)s1 [Example 1.4] :: 5.43

* * *

GI50 for assorted compounds
system: MCF-7
metric: GI50 (µM)

1) CNc1nc(C)c(-c2nc(Nc3cccc(C(=O)O)c3)ncc2C#N)s1 [Example 1.6] :: 1.87
2) CNc1nc(C)c(-c2nc(Nc3ccc(S(N)(=O)=O)cc3)ncc2C#N)s1 [Example 1.8] :: 1.64
3) COc1cccc(-c2nc(NO)nc(Nc3cccc([N+](=O)[O-])c3)n2)c1 [Example 2.8] :: 6.42
4) CNc1nc(C)c(-c2nc(Nc3cccc(C(=O)N4CCOCC4)c3)ncc2C#N)s1 [Example 1.4] :: 0.82
5) COc1cccc(-c2nc(Cl)nc(Nc3ccc(C)c(S(=O)(=O)N4CCOCC4)c3)n2)c1 [Example 2.4] :: 1.58
6) CNc1nc(C)c(-c2nc(Nc3ccc(C)c(S(=O)(=O)N4CCOCC4)c3)ncc2C#N)s1 [Example 1.1] :: 0.06
7) CNc1nc(C)c(-c2nc(Nc3ccc(O)cc3)ncc2C#N)s1 [Example 1.2] :: 0.23
8) COc1cccc(-c2nc(N)nc(Nc3cccc([N+](=O)[O-])c3)n2)c1 [Example 2.6] :: 7.07

* * *

biological target: CDK9 (Homo sapiens, UniProt P50750); assay: Kinase assay (radioactive phosphate incorporation); format: biochemical; conditions: CDK9-cyclinT1; read-out: Kinase inhibition IC50 CDK9-cyclinT1
Sequence (P50750 whole entry, species assumed): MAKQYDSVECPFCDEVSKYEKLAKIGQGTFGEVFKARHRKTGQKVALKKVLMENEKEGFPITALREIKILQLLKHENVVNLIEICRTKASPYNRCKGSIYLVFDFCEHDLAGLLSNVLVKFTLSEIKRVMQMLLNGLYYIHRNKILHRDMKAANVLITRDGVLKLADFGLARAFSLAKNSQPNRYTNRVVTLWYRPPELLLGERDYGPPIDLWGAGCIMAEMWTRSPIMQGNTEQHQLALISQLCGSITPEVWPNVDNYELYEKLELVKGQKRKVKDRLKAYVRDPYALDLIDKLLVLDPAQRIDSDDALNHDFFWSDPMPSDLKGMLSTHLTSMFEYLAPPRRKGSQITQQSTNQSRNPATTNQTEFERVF
Sequence (O60563 whole entry partner, species assumed): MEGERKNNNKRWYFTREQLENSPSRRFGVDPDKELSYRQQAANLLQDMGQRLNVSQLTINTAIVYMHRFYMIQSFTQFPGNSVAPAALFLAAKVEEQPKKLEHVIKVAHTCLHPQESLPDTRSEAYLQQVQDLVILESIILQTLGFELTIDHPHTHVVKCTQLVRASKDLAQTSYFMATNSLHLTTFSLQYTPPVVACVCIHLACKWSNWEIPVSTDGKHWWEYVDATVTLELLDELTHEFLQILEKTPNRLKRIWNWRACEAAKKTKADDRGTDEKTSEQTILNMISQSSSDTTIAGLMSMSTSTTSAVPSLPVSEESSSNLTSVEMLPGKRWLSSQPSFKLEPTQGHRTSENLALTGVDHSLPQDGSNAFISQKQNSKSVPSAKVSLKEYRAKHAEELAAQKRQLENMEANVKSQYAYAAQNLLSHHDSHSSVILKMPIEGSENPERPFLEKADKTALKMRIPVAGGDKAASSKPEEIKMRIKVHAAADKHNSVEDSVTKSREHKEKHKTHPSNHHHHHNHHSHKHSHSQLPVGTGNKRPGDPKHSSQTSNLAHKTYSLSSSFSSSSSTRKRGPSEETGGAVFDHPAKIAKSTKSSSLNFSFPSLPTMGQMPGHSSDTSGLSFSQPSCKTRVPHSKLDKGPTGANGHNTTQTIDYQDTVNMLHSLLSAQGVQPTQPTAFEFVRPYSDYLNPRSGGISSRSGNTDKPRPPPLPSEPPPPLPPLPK
metric: IC50 (µM)

1. CNc1nc(C)c(-c2nc(Nc3ccc(C)c(S(=O)(=O)N4CCOCC4)c3)ncc2C#N)s1 :: 0.041
2. CNc1nc(C)c(-c2nc(Nc3cccc(C(=O)N4CCN(C(C)=O)CC4)c3)ncc2C#N)s1 :: 0.033
3. CNc1nc(C)c(-c2nc(Nc3cccc(C(=O)N4CCOCC4)c3)ncc2C#N)s1 :: 0.085

* * *

test system: NCI-H460; experiment: 72-h MTT cytotoxicity assay; type: cell-based; settings: read-out: 72-h MTT IC50 (μM), human cell line, lung
metric: IC50 (µM)

1. CNc1nc(C)c(-c2nc(Nc3ccc(C)c(S(=O)(=O)N4CCOCC4)c3)ncc2C#N)s1 [Example 1.1] :: 0.681

* * *

System: Human tumour cell lines
Assay: 72-h MTT cytotoxicity assay, human tumour cell lines (panel / mean)
Format: cell-based
Settings: read-out: 72-h MTT IC50 (μM), mean over the nine human cell lines of Table A2
Text: MTT cytotoxicity assay. The compounds from the examples above were subjected to a standard cellular proliferation assay using the method described previously (Haselsberger, K. et al. Anti Cancer Drugs 1996, 7, (3), 331-8. Loveland, B. E. et al. Biochemistry International 1992, 27, (3), 501-10). Human tumour cell lines were obtained from ECACC (European Collection of Cell Cultures). […] Absorbance was read at 550 nm on an Anthos Labtec Systems plate reader.
metric: IC50

1) CNc1nc(C)c(-c2nc(Nc3ccc(C)c(S(=O)(=O)N4CCOCC4)c3)ncc2C#N)s1 :: 0.433 µM

* * *

biological target: CDK9 (Homo sapiens, UniProt P50750); test: Kinase assay (radioactive phosphate incorporation); format: biochemical
metric: IC50 (nM)

1) CNc1nc(C)c(-c2nc(Nc3cccc(O)c3)ncc2C#N)s1 :: 19
